- System: Nucleic Acid
- Procedure details: Induction of DNA alkylation at 5'-AAAAAAGACTGCT-3' site of 5'-Texas Red-modified 209bp DNA fragment at 10 nm to 1 uM after 18 hrs at 23 degC by high-resolution denaturing PAGE
- Type: nucleic-acid assay
Activity calls are given as the source filed them. The rule behind the calls is not given here.

[
  {
    "Chemical structure": "CC(=O)Nc1cn(C)c(C(=O)Nc2cc(C(=O)Nc3cc(C(=O)NCCC(=O)Nc4cn(C)c(C(=O)Nc5cc(C(=O)N[C@H](CCNC(=O)CCCc6ccc(N(CCCl)CCCl)cc6)C(=O)Nc6cnc(C(=O)Nc7cc(C(=O)NCCC(=O)Nc8cn(C)c(C(=O)Nc9cc(C(=O)Nc%10cc(C(=O)NCCCN(C)C)n(C)c%10)n(C)c9)n8)n(C)c7)n6C)n(C)c5)n4)n(C)c3)n(C)c2)n1",
    "Activity": "inactive"
  },
  {
    "Chemical structure": "CN(C)CCCNC(=O)c1cc(NC(=O)c2cc(NC(=O)c3nc(NC(=O)CCNC(=O)c4cc(NC(=O)c5ncc(NC(=O)CCCNC(=O)c6cc(NC(=O)c7nc(NC(=O)CCNC(=O)c8cc(NC(=O)c9cc(NC(=O)c%10nc(NC(=O)CCNC(=O)CCCc%11ccc(N(CCCl)CCCl)cc%11)cn%10C)cn9C)cn8C)cn7C)cn6C)n5C)cn4C)cn3C)cn2C)cn1C",
    "Activity": "inactive"
  },
  {
    "Chemical structure": "CN(C)CCCNC(=O)c1cc(NC(=O)c2cc(NC(=O)c3nc(NC(=O)CCNC(=O)c4cc(NC(=O)c5ncc(NC(=O)CCCNC(=O)c6cc(NC(=O)c7nc(NC(=O)CCNC(=O)c8cc(NC(=O)c9cc(NC(=O)c%10nc(NC(=O)CCCc%11ccc(N(CCCl)CCCl)cc%11)cn%10C)cn9C)cn8C)cn7C)cn6C)n5C)cn4C)cn3C)cn2C)cn1C",
    "Activity": "inactive"
  }
]
